Provide the recorded pIC50 for the entries that follow.
- target entity: UniProtKB P22303
- Sequence (P22303 whole entry): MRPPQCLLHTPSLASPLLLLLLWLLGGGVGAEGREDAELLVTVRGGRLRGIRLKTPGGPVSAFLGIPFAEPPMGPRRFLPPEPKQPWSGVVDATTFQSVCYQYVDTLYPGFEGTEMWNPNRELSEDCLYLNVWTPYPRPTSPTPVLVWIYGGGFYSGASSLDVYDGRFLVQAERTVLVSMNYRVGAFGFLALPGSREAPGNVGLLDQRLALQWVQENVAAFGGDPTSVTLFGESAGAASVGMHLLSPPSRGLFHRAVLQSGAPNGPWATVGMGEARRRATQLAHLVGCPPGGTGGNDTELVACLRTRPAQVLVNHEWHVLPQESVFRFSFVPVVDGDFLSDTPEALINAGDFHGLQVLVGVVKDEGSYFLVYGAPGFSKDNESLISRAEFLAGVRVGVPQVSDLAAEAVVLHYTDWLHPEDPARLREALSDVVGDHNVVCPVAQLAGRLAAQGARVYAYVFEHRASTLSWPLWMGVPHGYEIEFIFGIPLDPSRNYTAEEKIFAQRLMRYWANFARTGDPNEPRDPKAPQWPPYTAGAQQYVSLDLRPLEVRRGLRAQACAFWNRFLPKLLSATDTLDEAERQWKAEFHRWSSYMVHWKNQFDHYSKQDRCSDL
- test name: Inhibition of recombinant human AChE expressed in HEK293 cells by Ellman's method
Reminder that pIC50 means the negative base-10 logarithm of the concentration expressed in mol/L.

Ask: Query pIC50 on UniProtKB P22303 for c1ccc2c(c1)[nH]c1ccncc12
Result: 4.67

Ask: # iterate: Cn1ccc2nc3ccccc3c-2c1.I
Result: 5.06

Ask: # iterate: c1ccc2c(c1)c1cnccc1n2CCCCCCCCCn1c2ccccc2c2cnccc21
Result: 7.10

Ask: # iterate: O=C(CCn1c2ccccc2c2c[n+](Cc3ccccc3)ccc21)N1c2ccccc2Sc2ccccc21
Result: 5.66

Ask: # iterate: Cc1ccc2[nH]c3cc[n+](C)cc3c2c1.[I-]
Result: 5.04

Ask: # iterate: CN1CCc2c(c3ccccc3n2CCC(=O)N2c3ccccc3Sc3ccccc32)C1
Result: 5.11

Ask: # iterate: C[n+]1ccc2c(c1)c1cc(F)ccc1n2CCC(=O)N1c2ccccc2Sc2ccccc21
Result: 5.59

Ask: # iterate: COc1ccc2[nH]c3c(c2c1)CN(Cc1ccccc1)CC3
Result: 4.28

Ask: # iterate: COc1ccc2[nH]c3cc[n+](C)cc3c2c1.[I-]
Result: 4.83

Ask: # iterate: [Br-].c1ccc(C[n+]2ccc3[nH]c4ccccc4c3c2)cc1
Result: 5.07

Ask: # iterate: Fc1ccc2[nH]c3ccncc3c2c1
Result: 4.94
